Target or system JNK3 (Homo sapiens); recorded quantity pIC50.
Hey, just a heads up that pIC50 is the negative log base 10 of the concentration in molar.

Entry COc1ccccc1Nc1cc2cnn(-c3csc(C(=O)NC4COC4)c3)c2cc1F [Compound 23M] needs its pIC50 filled in; supply it.
7.85

Name the recorded pIC50 of the item COc1ccccc1Nc1cc2cnn(-c3cc(C(=O)NC4COC4)sc3C)c2cc1F [Compound 23GA] in your answer.
6.00

Determine from records and report pIC50 for CNC(=O)c1cc(-n2ncc3cc(Nc4c(F)cccc4Cl)c(COC)cc32)cs1 [Compound 21J]
8.22

Note down pIC50 recorded for CNC(=O)c1cc(-n2ncc3cc(Nc4c(F)cccc4Cl)c(CN4CCC4)cc32)cs1 [Compound 21G]
6.86
